# measurementTarget: T1, factor XIIIa (Homo sapiens, UniProt P00488)
# T1 sequence (P00488 39-732 limits assumed): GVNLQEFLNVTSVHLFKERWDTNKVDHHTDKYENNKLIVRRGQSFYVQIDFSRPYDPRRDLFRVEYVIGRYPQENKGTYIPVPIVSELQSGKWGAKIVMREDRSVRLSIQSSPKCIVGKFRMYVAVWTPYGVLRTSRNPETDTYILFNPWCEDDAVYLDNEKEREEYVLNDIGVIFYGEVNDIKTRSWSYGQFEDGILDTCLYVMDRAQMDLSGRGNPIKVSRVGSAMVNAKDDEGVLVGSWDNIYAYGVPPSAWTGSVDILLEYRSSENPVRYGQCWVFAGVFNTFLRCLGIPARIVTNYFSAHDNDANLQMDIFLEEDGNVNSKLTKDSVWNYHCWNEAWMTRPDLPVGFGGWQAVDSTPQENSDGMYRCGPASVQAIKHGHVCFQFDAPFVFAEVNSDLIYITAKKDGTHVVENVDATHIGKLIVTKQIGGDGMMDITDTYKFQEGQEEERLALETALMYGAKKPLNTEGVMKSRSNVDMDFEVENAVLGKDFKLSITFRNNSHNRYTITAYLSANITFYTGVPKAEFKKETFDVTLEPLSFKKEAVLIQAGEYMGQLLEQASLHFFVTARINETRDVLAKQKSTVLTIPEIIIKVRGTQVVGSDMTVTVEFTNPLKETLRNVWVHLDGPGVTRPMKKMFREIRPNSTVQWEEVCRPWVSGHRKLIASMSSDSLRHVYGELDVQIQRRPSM
# procedureText: biochemical
# Assay type: biochemical
# recordedConditions: Table 4, Cys variants; final variant concentration 5.45 μM; wild-type tridegin polypeptide normalized to 100%
Provide the recorded Relative inhibitory effect (%) for the entries that follow.
Use % as the unit, but write only the number.

Q: Which Relative inhibitory effect (%) reading was recorded for the molecule C32A: tridegin modified by replacement of a cysteine residue, expressed in Escherichia coli (protein) MKLLPCKEWHQGIPNPRCWCGADLECAQDQYAAFIPQCRPRSELIKPMDDIYQRPVEFPNLPLKPREE ?
Result: 86

Q: Would you mind telling me what Relative inhibitory effect (%) value was observed for C26A; +C38A: tridegin modified by replacement of two cysteine residues, expressed in Escherichia coli (protein) MKLLPCKEWHQGIPNPRCWCGADLEAAQDQYCAFIPQARPRSELIKPMDDIYQRPVEFPNLPLKPREE ?
Result: 80

Q: Look at this molecule and give its reported Relative inhibitory effect (%). C26A: tridegin modified by replacement of a cysteine residue, expressed in Escherichia coli (protein) MKLLPCKEWHQGIPNPRCWCGADLEAAQDQYCAFIPQCRPRSELIKPMDDIYQRPVEFPNLPLKPREE
Result: 82

Q: May I ask what Relative inhibitory effect (%) has been recorded for C20A: tridegin modified by replacement of a cysteine residue, expressed in Escherichia coli (protein) MKLLPCKEWHQGIPNPRCWAGADLECAQDQYCAFIPQCRPRSELIKPMDDIYQRPVEFPNLPLKPREE ?
Result: 63

Q: Give its Relative inhibitory effect (%) value. Item: C06A: tridegin modified by replacement of a cysteine residue, expressed in Escherichia coli (protein) MKLLPAKEWHQGIPNPRCWCGADLECAQDQYCAFIPQCRPRSELIKPMDDIYQRPVEFPNLPLKPREE
Result: 72

Q: For the molecule shown here, C18A: tridegin modified by replacement of a cysteine residue, expressed in Escherichia coli (protein) MKLLPCKEWHQGIPNPRAWCGADLECAQDQYCAFIPQCRPRSELIKPMDDIYQRPVEFPNLPLKPREE , give the reported Relative inhibitory effect (%).
Result: 93

Q: I am curious: what Relative inhibitory effect (%) value has been reported for SEQ ID No. 1: recombinant wild-type tridegin polypeptide expressed in and purified from Escherichia coli (protein) MKLLPCKEWHQGIPNPRCWCGADLECAQDQYCAFIPQCRPRSELIKPMDDIYQRPVEFPNLPLKPREE ?
Result: 100

Just for reference, patent US20090226415A1 is where these values come from.
